STUDY SYSTEM: 3-phosphoinositide-dependent protein kinase 1 (Homo sapiens)
PROCEDURE DETAILS: Inhibition of PDK1 (unknown origin)
QUANTITY NAME: IC50 (µM)
Respond with the bare value in µM.

Returns the measured IC50 for the input compound. Input: O=P(O)(O)O[C@@H]1[C@@H](OP(=O)(O)O)[C@@H](OP(=O)(O)O)[C@@H](OCc2ccccc2)[C@H](OP(=O)(O)O)[C@H]1OP(=O)(O)O
0.0265

###

System: UMC-11
PROCEDURE DETAILS: Antiproliferative activity against human UMC11 cells after 72 hrs by ATP ViaLight assay
Format: functional, cell-based
CONDITION: UMC-11, 72 h
QUANTITY NAME: EC50

Returns the measured EC50 for the input compound. Input: O=C(N[C@@H](COc1ccc2[nH]c(=O)[nH]c2c1)c1ccccc1)c1cccn(Cc2ccc(F)c(F)c2)c1=O
> 9 µM

###

Test system: LS-513
PROCEDURE DETAILS: Antiproliferative activity against human LS513 cells harboring KRAS mutant after 72 hrs by ATP ViaLight assay
Type: functional, cell-based
CONDITION: LS-513, 72 h
pEC50: −log10 of the molar value.
QUANTITY NAME: pEC50

Returns the measured pEC50 for the input compound. Input: O=C(N[C@@H](COc1ccc2[nH]c(=O)[nH]c2c1)c1ccccc1)c1cccn(Cc2ccc(F)c(F)c2)c1=O
< 5.05

###

System: A549
PROCEDURE DETAILS: Antiproliferative activity against human A549 cells harboring KRAS mutant after 72 hrs by ATP ViaLight assay
Type: functional, cell-based
CONDITION: A549, 72 h
QUANTITY NAME: EC50

Returns the measured EC50 for the input compound. Input: O=C(N[C@@H](COc1ccc2[nH]c(=O)[nH]c2c1)c1ccccc1)c1cccn(Cc2ccc(F)c(F)c2)c1=O
> 9 µM

###

Test system: A-427
PROCEDURE DETAILS: Antiproliferative activity against human A427 cells harboring KRAS mutant after 72 hrs by ATP ViaLight assay
Assay type: functional, cell-based
CONDITION: A-427, 72 h
QUANTITY NAME: EC50

Returns the measured EC50 for the input molecule. Input: O=C(N[C@@H](COc1ccc2[nH]c(=O)[nH]c2c1)c1ccccc1)c1cccn(Cc2ccc(F)c(F)c2)c1=O
> 9 µM

###

Test system: NCI-H446
PROCEDURE DETAILS: Antiproliferative activity against PTEN-deficient human NCI-H446 cells after 72 hrs by ATP ViaLight assay
Assay type: functional, cell-based
CONDITION: NCI-H446, 72 h
QUANTITY NAME: EC50

Returns the measured EC50 for the input compound. Input: O=C(N[C@@H](COc1ccc2[nH]c(=O)[nH]c2c1)c1ccccc1)c1cccn(Cc2ccc(F)c(F)c2)c1=O
> 9 µM

###

System: MDA-MB-231
PROCEDURE DETAILS: Antiproliferative activity against human MDA-MB-231 cells harboring KRAS mutant after 72 hrs by ATP ViaLight assay
Format: functional, cell-based
CONDITION: MDA-MB-231, 72 h
QUANTITY NAME: EC50

Returns the measured EC50 for the input compound. Input: O=C(N[C@@H](COc1ccc2[nH]c(=O)[nH]c2c1)c1ccccc1)c1cccn(Cc2ccc(F)c(F)c2)c1=O
> 9 µM

###

STUDY SYSTEM: 3-phosphoinositide-dependent protein kinase 1 (Homo sapiens, UniProt O15530)
Sequence (O15530 whole entry): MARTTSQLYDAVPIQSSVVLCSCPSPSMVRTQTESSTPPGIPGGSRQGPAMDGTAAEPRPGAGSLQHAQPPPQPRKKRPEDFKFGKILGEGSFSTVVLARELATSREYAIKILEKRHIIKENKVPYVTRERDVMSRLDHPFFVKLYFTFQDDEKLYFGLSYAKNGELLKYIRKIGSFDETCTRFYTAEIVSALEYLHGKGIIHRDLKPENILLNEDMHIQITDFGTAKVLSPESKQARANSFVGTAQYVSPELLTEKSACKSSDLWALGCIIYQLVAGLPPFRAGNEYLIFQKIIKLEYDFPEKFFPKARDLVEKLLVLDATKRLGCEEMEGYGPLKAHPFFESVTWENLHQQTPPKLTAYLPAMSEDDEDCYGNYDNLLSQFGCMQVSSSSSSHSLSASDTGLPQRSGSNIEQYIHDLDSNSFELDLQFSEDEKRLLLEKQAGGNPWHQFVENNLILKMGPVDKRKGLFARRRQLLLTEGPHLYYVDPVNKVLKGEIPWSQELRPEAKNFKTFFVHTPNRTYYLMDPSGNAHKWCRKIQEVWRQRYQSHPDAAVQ
PROCEDURE DETAILS: Inhibition of recombinant PDK1 (unknown origin) using RPRAATF peptide as substrate assessed as substrate phosphorylation by scintillation counting analysis in presence of [gamma-32P]ATP
QUANTITY NAME: IC50 (nM)
Respond with the bare value in nM.

Returns the measured IC50 for the input compound. Input: NC(N)=Nc1ccc(-n2nc(C(F)(F)F)cc2-c2ccc3c(ccc4ccccc43)c2)cc1
2000
